Answer each item with its documented change in vivo at 30 mg/kg.
assay: In vivo screen designated APCC: blood cholesterol in rats on chow supplemented with peanut oil, cholesterol and cholic acid; conditions: Rattus norvegicus, 16 h; cholesterol in blood; male Sprague-Dawley rats; oral, 30 milligrams per kilogram, single dose 4 PM, blood samples 8 AM next day; vs vehicle control (CMC/Tween); read-out: % Change (mg/dl)
Answer in %, number only, no unit symbol.

## Input GET /values?readout=change in vivo at 30 mg/kg&item= CCCCCCCCCCCc1nc(NC(=O)Nc2c(C(C)C)cccc2C(C)C)n(C(C)=O)n1 [Example 1]
## Output -38

## Input Next: CCCCCCCCCCCCCc1nnc(NC(=O)Nc2c(C(C)C)cccc2C(C)C)s1 [Example 22]
## Output -8

## Input Please give the result for CCCCCCCCCCCn1cnnc1NC(=O)Nc1c(C(C)C)cccc1C(C)C [Example 9] too.
## Output -21

----------
Target or system acyl-CoA:cholesterol acyltransferase (ACAT) (Oryctolagus cuniculus): recorded IC50 listed per item.
Report as a plain number; the unit nM is understood.

## Input What measured IC50 is associated with CCCCCCCCCCCc1nnc(NC(=O)Nc2c(C(C)C)cccc2C(C)C)s1 [Example 18] on acyl-CoA:cholesterol acyltransferase (ACAT) (Oryctolagus cuniculus)?
## Output 39

## Input Now consider CCCCCCCc1nnc(NC(=O)Nc2c(C(C)C)cccc2C(C)C)s1 [Example 20] and answer again.
## Output 400

## Input Please give the result for CCCCCCCCCCCn1cnnc1NC(=O)Nc1c(C(C)C)cccc1C(C)C [Example 9] too.
## Output 670

----------
Exercise: for every item that follows, state its recorded change in vivo at 30 mg/kg.
test: In vivo screen designated APCC: blood cholesterol in rats on chow supplemented with peanut oil, cholesterol and cholic acid; conditions: Rattus norvegicus, 16 h; cholesterol in blood; male Sprague-Dawley rats; oral, 30 milligrams per kilogram, single dose 4 PM, blood samples 8 AM next day; vs vehicle control (CMC/Tween); read-out: % Change (mg/dl)
Numbers only; they are read as %.

## Input Find the recorded change in vivo at 30 mg/kg belonging to CCCCCCCCCCCCCc1nnc(NC(=O)Nc2c(C(C)C)cccc2C(C)C)o1 and report it.
## Output -62

## Input Can you check CCCCCCCCCCCCn1cnnc1NC(=O)Nc1c(C(C)C)cccc1C(C)C next?
## Output -28

## Input Ok, now CCCCCCCCCc1nnc(NC(=O)Nc2c(C(C)C)cccc2C(C)C)s1
## Output -45

## Input Check CCCCCCCCCCCCc1nc(NC(=O)Nc2c(C(C)C)cccc2C(C)C)n[nH]1 too.
## Output 12

## Input Field entry: CCCCCCCCCCCCCSc1nnc(NC(=O)Nc2c(C(C)C)cccc2C(C)C)n1C(C)=O
## Output -21

## Input Item: CCCCCCCc1nnc(NC(=O)Nc2c(C(C)C)cccc2C(C)C)s1
## Output -25

## Input Please do the same for CCCCCCCCCCCCC[S+]([O-])c1nc(NC(=O)Nc2c(C(C)C)cccc2C(C)C)n[nH]1 (centres unmarked) as well.
## Output -6

## Input Now try CCCCCCCCCCCn1ncnc1NC(=O)Nc1c(C(C)C)cccc1C(C)C .
## Output -38

## Input Then CCCCCCCCCCCCCS(=O)(=O)c1nnc(NC(=O)Nc2c(C(C)C)cccc2C(C)C)[nH]1 ?
## Output -11

## Input How about CCCCCCCCCCCc1nnc(NC(=O)Nc2c(C(C)C)cccc2C(C)C)s1 ?
## Output -44

## Input For CCCCCCCCCCCCn1cnc(NC(=O)Nc2c(C(C)C)cccc2C(C)C)n1 then?
## Output -30

## Input Record: CCCCCCCCCCCCCCc1nc(NC(=O)Nc2c(C(C)C)cccc2C(C)C)n[nH]1
## Output -1

## Input Then what about the compound CCCCCCCCCCCCSc1nnc(NC(=O)Nc2c(C(C)C)cccc2C(C)C)n1C(C)=O ?
## Output -41

## Input Repeat with CCCCCCCCCCCCc1nnc(NC(=O)Nc2c(C(C)C)cccc2C(C)C)s1
## Output -32

## Input Follow-up entry: CCCCCCCCCCCc1nc(NC(=O)Nc2c(C(C)C)cccc2C(C)C)n[nH]1
## Output -31

## Input Same lookup for CCCCCCCCCCCn1cnc(NC(=O)Nc2c(C(C)C)cccc2C(C)C)n1 , please.
## Output -39

## Input Further, for CCCCCCCCCCCCCSc1nnc(NC(=O)Nc2c(C(C)C)cccc2C(C)C)[nH]1 ?
## Output 12
